Test system: Candida albicans
Assay: microbe, parasite or virus in culture
Details: ATCC SC5314, 64 h
Description: Antifungal activity against Candida albicans ATCC SC5314 assessed as inhibition of fungal growth incubated for 64 hrs by liquid medium dilution method
Sorting guide: entries reporting MIC50 beneath 0.5 µg/mL go in the Criterion met pile, the rest go in the Criterion not met pile.

Cc1c(CN2CCC(NCC(O)(Cn3cncn3)c3ccc(Cl)cc3)CC2)cccc1-c1ccccc1 (stereo not given) = Criterion met
Cc1c(CN2CCC(CNCC(O)(Cn3ccnc3)c3ccc(Cl)cc3Cl)CC2)cccc1-c1ccccc1 (stereo not given) = Criterion not met
Cc1c(CN2CCCC(C(=O)NCC(O)(Cn3ccnc3)c3ccc(Cl)cc3)C2)cccc1-c1ccccc1 (stereo not given) = Criterion not met
Cc1c(CN2CCCC(C(=O)NCC(O)(Cn3cncn3)c3ccc(Cl)cc3)C2)cccc1-c1ccccc1 (stereo not given) = Criterion met
Cc1c(CN2CCC(NCC(O)(Cn3ccnc3)c3ccc(Cl)cc3Cl)CC2)cccc1-c1ccccc1 (stereo not given) = Criterion met
CC(=O)N1CCN(c2ccc(OCC3COC(Cn4ccnc4)(c4ccc(Cl)cc4Cl)O3)cc2)CC1 (stereo not given) = Criterion met
Cc1c(CN2CCC(CNCC(O)(Cn3ccnc3)c3ccc(Cl)cc3)CC2)cccc1-c1ccccc1 (stereo not given) = Criterion not met
O=C(NCC(Cc1ccccc1)Cn1ccnc1)C1CCCN(Cc2ccc(-c3ccccc3)cc2)C1 (stereo not given) = Criterion not met
Cc1c(CN2CCC(CNCC(O)(Cn3cncn3)c3ccc(Cl)cc3Cl)CC2)cccc1-c1ccccc1 (stereo not given) = Criterion not met
Cc1c(CN2CCCC(C(=O)NCC(Cc3ccccc3)Cn3cncn3)C2)cccc1-c1ccccc1 (stereo not given) = Criterion met

* * *

System: Nakaseomyces glabratus
Assay: microbe, parasite or virus in culture
Settings: 64 h
Description: Antifungal activity against Candida glabrata assessed as inhibition of fungal growth incubated for 64 hrs by liquid medium dilution method
quantity.measured: MIC50 (µg/mL)

Cc1c(CN2CCCC(C(=O)NCC(O)(Cn3cncn3)c3ccc(Cl)cc3)C2)cccc1-c1ccccc1 (stereo not given) = 0.5
Cc1c(CN2CCCC(C(=O)NCC(O)(Cn3ccnc3)c3ccc(Cl)cc3)C2)cccc1-c1ccccc1 (stereo not given) = 1
Cc1c(CN2CCC(NCC(O)(Cn3cncn3)c3ccc(Cl)cc3)CC2)cccc1-c1ccccc1 (stereo not given) = 0.25
Cc1c(CN2CCC(CNCC(O)(Cn3cncn3)c3ccc(Cl)cc3Cl)CC2)cccc1-c1ccccc1 (stereo not given) = 1
O=C(NCC(Cc1ccccc1)Cn1ccnc1)C1CCCN(Cc2ccc(-c3ccccc3)cc2)C1 (stereo not given) = 0.5

* * *

Measured MIC50 values are reported for all entries that follow.
Tested on: Cryptococcus neoformans
Test: microbe, parasite or virus in culture
Conditions: ZKCC 2209, 64 h
Description: Antifungal activity against Cryptococcus neoformans ZKCC 2209 assessed as inhibition of fungal growth incubated for 64 hrs by liquid medium dilution method
quantity.measured: MIC50 (µg/mL)

Cc1c(CN2CCC(NCC(O)(Cn3ccnc3)c3ccc(Cl)cc3Cl)CC2)cccc1-c1ccccc1 (centres undefined) = 1
Cc1c(CN2CCC(CNCC(O)(Cn3cncn3)c3ccc(Cl)cc3)CC2)cccc1-c1ccccc1 (centres undefined) = 4
Cc1c(CN2CCC(CNCC(O)(Cn3cncn3)c3ccc(Cl)cc3Cl)CC2)cccc1-c1ccccc1 (centres undefined) = 2
